test system: HCT116 MTAP-deleted cell lines; assay: Cell viability assay (CellTiter-Glo, 7 days), HCT116 MTAP-deleted; assay type: cell-based; details: Homo sapiens, HCT-116; cell viability assay, HCT116 MTAP-deleted; class symbols; read-out: CC50
MEASURED PARAMETER: CC50

The measured CC50 that CN(C(=O)c1cc2c(cc1F)nc(N)c1cncn12)[C@@H]1COc2cc(C#CC3(C#N)CC3)ccc21 showed for HCT116 MTAP-deleted cell lines is < 100 nM

Bench note, HCT116 MTAP-deleted cell lines: CC(C)N(Cc1ccc(-c2ccc(OC(F)F)cc2)cc1F)C(=O)c1cc2c(cc1F)nc(N)c1cncn12 , CC50 reads < 100 nM

Summary line: Nc1nc2cc(F)c(C(=O)N3CCC4(CC4)[C@@H]4Oc5cc(C(F)(F)F)ccc5[C@@H]43)cc2n2cncc12 , HCT116 MTAP-deleted cell lines, reported CC50 = < 100 nM

Hey, HCT116 MTAP-deleted cell lines data for Nc1nc2ccc(C(=O)N3CC[C@H]4C[C@@H]3c3ccc(C(F)(F)F)cc3O4)cc2n2cncc12 : CC50 came out at < 100 nM

Field CC50 (system: HCT116 MTAP-deleted cell lines) for entry CN(Cc1ccc(-c2cnn(C(F)(F)F)c2)cc1Cl)C(=O)c1cc2c(cc1F)nc(N)c1cncn12 = 100 to 1000 nM

The compound CN(C(=O)c1cc2c(cc1F)nc(N)c1cncn12)[C@@H]1COc2cc([C@@H]3C[C@H]3C3CC3)ccc21 (racemic) , tested on HCT116 MTAP-deleted cell lines, showed CC50 of < 100 nM

The compound CN(C(=O)c1cc2c(cc1F)nc(N)c1cncn12)[C@@H]1COc2cc(C3CC34CCC4)ccc21 (some centres unmarked) on HCT116 MTAP-deleted cell lines: CC50 was 100 to 1000 nM

Field CC50 (HCT116 MTAP-deleted cell lines), entry Nc1nc2cnc(C(=O)N3CC4(CC4)C[C@@H]4Oc5cc(C(F)(F)F)ccc5[C@@H]43)cc2n2cncc12 : < 100 nM

The observed CC50 for Nc1nc2cc(F)c(C(=O)N(Cc3ccc(C(F)(F)F)cc3F)c3cnn4ccccc34)cc2n2cncc12 when tested with HCT116 MTAP-deleted cell lines stands at < 100 nM

// assay HCT116 MTAP-deleted cell lines, entry CN(C(=O)c1ccc2nc(N)c3cncn3c2c1)[C@@H]1COc2cc(F)ccc21 , CC50 value = 100 to 1000 nM

Test item Nc1nc2cc(F)c(C(=O)N3CCC[C@@H]4Oc5cc(C(F)(F)F)ccc5[C@@H]43)cc2n2cnc(Cl)c12 (single isomer, unassigned) ; HCT116 MTAP-deleted cell lines; reported CC50 was < 100 nM

Result for C[C@@H]1CC[C@@H]2Oc3cc(OC(F)(F)F)ccc3[C@@H]2N1C(=O)c1cc2c(cc1F)nc(N)c1cncn12 (single isomer, unassigned) , tested on HCT116 MTAP-deleted cell lines, CC50: < 100 nM

Reading of CC50 for Nc1nc2cnc(C(=O)N3CC4(CC4)C[C@@H]4Oc5cc(OC(F)(F)F)ccc5[C@@H]43)cc2n2cncc12 with HCT116 MTAP-deleted cell lines: < 100 nM

Record Nc1nc2cc(F)c(C(=O)N(Cc3ccc(C(F)(F)F)cn3)C3CC(F)(F)C3)cc2n2cncc12 / HCT116 MTAP-deleted cell lines, CC50 recorded as < 100 nM

The measured CC50 that CC(=O)N1CC(C#Cc2ccc3c(c2)OC[C@H]3N(C)C(=O)c2ccc3nc(N)c4cncn4c3c2)C1 showed for HCT116 MTAP-deleted cell lines is 100 to 1000 nM

Given the compound CC(C)N(Cc1ccc(-c2ccc[nH]c2=O)cc1F)C(=O)c1cc2c(cc1F)nc(N)c1cncn12 and test system HCT116 MTAP-deleted cell lines, the measured CC50 is 100 to 1000 nM

Known value: HCT116 MTAP-deleted cell lines CC50 of the compound CN(C(=O)c1cc2c(cc1F)nc(N)c1cncn12)[C@@H]1COc2cc(C#CC(C)(C)F)ccc21 equals < 100 nM

###

assay: Cell viability assay (CellTiter-Glo, 7 days), HCT116 WT; type: cell-based; conditions: human, HCT116 WT cells, 7 days of treatment, CTG
MEASURED PARAMETER: CC50 at 7 days (nM)
Express the result in nM but write the number alone.

Quick note, CC50 at 7 days for Cc1ncn2c1c(N)nc1cnc(C(=O)N3CC[C@H]4C[C@@H]3c3ccc(OC(F)(F)F)cc3O4)cc12 landed at 1680

response.value for Cc1ncc2c(N)nc3cc(F)c(C(=O)N4CCC[C@@H]5Oc6nc(C(F)(F)F)ccc6[C@@H]54)cc3n12 (field: CC50 at 7 days) = 2040

CC50 at 7 days reported for this compound Cc1ncc2c(N)nc3cnc(C(=O)N4CC[C@H]5C[C@@H]4c4ccc(OC(F)(F)F)cc4O5)cc3n12 : 1440

Value of measured CC50 at 7 days for the entry Nc1nc2cnc(C(=O)N3CC[C@H]4C[C@@H]3c3ccc(C(F)(F)F)cc3O4)cc2n2cncc12 : 925

Note to self: CC50 at 7 days recorded for Nc1nc2ccc(C(=O)N3CCC[C@@H]4Oc5cc(C(F)(F)F)cc(F)c5[C@@H]43)cc2n2cncc12 was 1880

Reported CC50 at 7 days of Cc1ncn2c1c(N)nc1cc(F)c(C(=O)N3CCCC[C@@H]3c3ccc(S(F)(F)(F)(F)F)cc3)cc12 : 2520

Quick note, CC50 at 7 days for C[C@@H]1CN(C(=O)c2cc3c(cc2F)nc(N)c2cncn23)[C@H]2c3cc(F)c(OC(F)(F)F)cc3C[C@H]2O1 (single isomer, unassigned) landed at 712

// field: CC50 at 7 days; key: Cc1ncc2c(N)nc3cnc(C(=O)N4CCC[C@@H]5Oc6cc(C(F)(F)F)ccc6[C@@H]54)cc3n12 ; value = 2300

The compound identified as Cc1ncn2c1c(N)nc1ccc(C(=O)N3CCC[C@@H]4Oc5cc(C(F)(F)F)ccc5[C@@H]43)cc12 registered its CC50 at 7 days at 2140

Value of measured CC50 at 7 days for the entry Cc1ncc2c(N)nc3cnc(C(=O)N4CCC[C@@H]5Oc6cc(OC(F)(F)F)ccc6[C@@H]54)cc3n12 : 2460

###

system: Symmetric Di-methyl Arginine (SDMA) signal (PRMT5 inhibition) in HCT116 MTAP-deleted cells; assay: Symmetric di-methyl arginine image-based high content screen assay (SDMA assay), HCT116 MTAP-deleted; type: cell-based; conditions: Homo sapiens, HCT-116, HCT116 MTAP-deleted, class symbols
pEC50: −log10 of the molar value.
Provide the recorded pEC50 for the entries that follow.

The reported value for [2H]C1([2H])CC[C@@H]2Oc3cc(C(F)(F)F)ccc3[C@@H]2N1C(=O)c1cc2c(cn1)nc(N)c1c(C)ncn12 [Ff-644] in terms of pEC50 is ≥ 9.00

The compound Nc1nc2ccc(C(=O)N3CCC[C@@H]4Oc5cc(C(F)(F)F)ccc5[C@@H]43)cc2n2cncc12 [Ff-111] showed pEC50 equal to ≥ 9.00

Nc1nc2cc(F)c(C(=O)N3CCC[C@H]4OCc5cc(OC(F)F)ccc5[C@H]43)cc2n2cncc12 (single isomer, unassigned) [Ff-391] yielded pEC50 of 8.30 to 9.00

Entry Nc1nc2ccc(C(=O)N3C[C@@H](F)C[C@@H]4Oc5cc(OC(F)(F)F)ccc5[C@@H]43)cc2n2cncc12 [Ff-667] , pEC50 reported as ≥ 9.00

Per the records, this compound ( CN(C(=O)c1cc2c(cc1F)nc(N)c1cncn12)[C@@H]1COc2cc(-n3cnc(C(F)(F)F)c3)ccc21 [Ff-325] ) has pEC50 equal to ≥ 9.00

Recorded pEC50 (compound Nc1nc2ccc(C(=O)N(Cc3ccc(C(F)(F)F)cn3)C34CC(C3)C4)cc2n2cncc12 [Fe-1] ): 8.30 to 9.00

Sample CC(=O)N(C)N(Cc1nc2cc(Cl)ccc2s1)C(=O)c1ccc2nc(N)c3cnc(C)n3c2c1 [Fb-6] ; pEC50 observed: < 8.30

Entry under test: CN(C(=O)c1cc2c(cc1F)nc(N)c1cncn12)[C@@H]1COc2cc(C(F)(F)F)ccc21 [Ff-12] . Its pEC50 was ≥ 9.00

###

Assign CC50 to each entry below.
test system: HCT116 MTAP-deleted cell lines; assay: Cell viability assay (CellTiter-Glo, 7 days), HCT116 MTAP-deleted; assay type: cell-based; conditions: Homo sapiens, HCT-116; cell viability assay, HCT116 MTAP-deleted; class symbols; read-out: CC50

Per the record, CN(C(=O)c1cc2c(cc1F)nc(N)c1cncn12)[C@H]1COc2cc(OC(F)(F)F)ccc21 (single isomer, unassigned) has CC50 of 100 to 1000 nM

Please fill in: CC50 reported for Cc1ncn2c1c(N)nc1cnc(C(=O)N3CC4(CC4)C[C@@H]4Oc5cc(C(F)(F)F)ccc5[C@@H]43)cc12 = < 100 nM

Form field CC50, entry Cc1ncn2c1c(N)nc1cnc(C(=O)N3CCC[C@@H]4Oc5cc(OC(F)(F)F)ccc5[C@@H]43)cc12 : < 100 nM

# CC50 (compound: Nc1nc2cc(F)c(C(=O)N3CCC[C@H]4OCc5cc(OC(F)F)ccc5[C@H]43)cc2n2cncc12 (single isomer, unassigned) ) is < 100 nM

Reported CC50 for Nc1nc2cc(F)c(C(=O)N3CCO[C@@H]4Cc5c(ccc(C(F)(F)F)c5F)[C@@H]43)cc2n2cncc12 was 100 to 1000 nM

The reported value for CN(C(=O)c1cc2c(cc1F)nc(N)c1cncn12)C1CCCc2cc(C(F)(F)F)ccc21 (stereo not shown) in terms of CC50 is 100 to 1000 nM

The reported CC50 of the compound COc1cc(-c2cnn(C(F)F)c2)ccc1CN(C)C(=O)c1cc2c(cc1F)nc(N)c1cncn12 was 100 to 1000 nM

Reported CC50 of C[C@@H]1C[C@@H]2Cc3nc(C(F)(F)F)ccc3[C@@H]2N(C(=O)c2cc3c(cc2F)nc(N)c2cncn23)C1 (single isomer, unassigned) : < 100 nM

get_value(item= CN(C(=O)c1cc2c(cc1F)nc(N)c1cncn12)[C@@H]1COc2ccc(Br)cc21 , readout=CC50) returns < 100 nM

Form field CC50, entry Cc1ncn2c1c(N)nc1cc(F)c(C(=O)N3C[C@H](C)C[C@@H]4Oc5cc(C(F)(F)F)ncc5[C@@H]43)cc12 : < 100 nM

Input CN(C(=O)c1ccc2nc(N)c3cncn3c2c1)[C@@H]1COc2cc(C#CC34CCC(CC3)O4)ccc21 . Output CC50: 100 to 1000 nM

Kindly note the recorded CC50 for Cc1ncn2c1c(N)nc1cnc(C(=O)N3CC[C@H]4C[C@@H]3c3ccc(C(F)(F)F)cc3O4)cc12 , which is < 100 nM

Entry CO[C@@H]1Cc2cc(Br)ccc2[C@@H]1N(C)C(=O)c1cc2c(cc1F)nc(N)c1cncn12 , CC50 reported as < 100 nM

Data point: Nc1nc2ccc(C(=O)N3C[C@H](F)CC4Oc5cc(OC(F)(F)F)ccc5C43)cc2n2cncc12 (mixture of isomers) ; CC50 = < 100 nM

So, Cc1ncc2c3cc(C(=O)N(Cc4ccc(C(F)(F)F)cn4)[C@H](C)c4ncccn4)c(F)cc3nc(N)n12 ? Its CC50 was < 100 nM

CC50 recorded for this compound, CC(C)N(Cc1ccc(C(F)(F)F)cc1F)C(=O)c1ccc2nc(N)c3cncn3c2c1 , is < 100 nM

Record Cc1ncn2c1c(N)nc1cnc(C(=O)N3C[C@H](C)C[C@@H]4Oc5c(ccc(C(F)(F)F)c5F)[C@@H]43)cc12 . Reported CC50: < 100 nM

// recorded CC50 for Cc1ncn2c1c(N)nc1cc(F)c(C(=O)N3C[C@@H](C)O[C@@H]4Cc5cc(C(F)(F)F)ccc5[C@@H]43)cc12 : < 100 nM

Entry Nc1nc2ccc(C(=O)N(Cc3ccc(C(F)(F)F)cc3F)C3CCC3)cc2n2cncc12 , CC50 reported as < 100 nM
